system: SARS-CoV-2 S on pseudovirions (Wuhan Hu-1 / IL1/2020, last 18 amino acids removed) (SARS-CoV-2, UniProt P0DTC2 14-1273)
protocol_details: cell-based or functional assay
endpoint_name: Mean IC80, pSV neutralization

COV_3088 (antibody, V domains shown, human IgG1) VH: EVQLVESGGGLVQPGGSLRLSCAASGFTFSSYDMHWVRQATGKGLEWVSAIGTAGDTYYPGSVKGRFTISRENAKNSLYLQMNSLRAGDTAVYYCARGSGWPPFFDYWGQGTLVTVSS VL: SYELTQPPSVSVAPGKTARITCGGNNIGSKSVHWYQQKPGQAPVLVIYYDSDRPSGIPERFSGSNSGNTATLTISRVEAGDEADYYCQVWDSSSDHHWVFGGGTKLTVL	≥ 25 µg/ml
COV_2014 (antibody, V domains shown, human IgG1) VH: QVQLVQSGAEVKKPGASVKVSCKVSGYTLTELSMHWVRQAPGKGLEWMGGFDPEDGETIYAQKFQGRVTMTEDTSTDTAYMELSSLRSEDTAVYYCATGKINYYDSSGYYGTFDYWGQGTLVTVSS VL: AIQLTQSPSSLSASVGDRVTITCRASQGISSYLAWYQQKPGKAPKLLIYAASTLQSGVPSRFSGSGSGTDFTLTISSLQPEDFATYYCQQLNSYHLTFGQGTRLEIK	≥ 25 µg/ml

Let's switch to this binder now.
Please look up its Mean IC80, pSV neutralization: COV_3013 (antibody, V domains shown) VH: EVQLVESGGGLVQPGRSLRLSCTTSGFNFGDNSMSWVRQAPGKGLEWVGFISNKAHGATTEYAASVRGRFTISRDDSKSIVYLQMNSLTTEDTAMYYCIRDSYGHFPSYGFDIWGQGTMVTVSS VL: DVVMTQTPLSLSVTPGQPASISCKSSQSLIHSDAKTYFYWFLQKPGQPPQLLIYDVSNRFSGVPDRFSGSGSGTDFTLKISRVEAEDVGVYYCMHSIQLPRTFGQGTKVEIT
≥ 25 µg/ml
